Ref: the supplement of paper PMC9233669

Tested on: biotinyl-Leu-oxazolone
Assay: self-aminoacylation, catalytic enhancement (BLO) (fold over background); higher = more active; k-Seq, kA / k0A0; sequences stand for … in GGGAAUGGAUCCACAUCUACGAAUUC…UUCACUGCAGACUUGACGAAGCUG
This sample holds only a part of the variants without activity.
outcome.measure: self-aminoacylation
# respond with the number and nothing more

Lab note: biotinyl-Leu-oxazolone assay, enter self-aminoacylation for CCAGACUUCAAGCAAACGGUC [Fam1B.1 aminoacylation ribozyme variant] here 0.628

Lab note: biotinyl-Leu-oxazolone assay, enter self-aminoacylation for AUUCACCUAGAUCAUCGCGUG [Fam2.2 aminoacylation ribozyme variant] here 8.58

Lab note: biotinyl-Leu-oxazolone assay, enter self-aminoacylation for AUUACCCUAGUCAUCAAGUGA [Fam2.1 aminoacylation ribozyme variant] here 3.66

Lab note: biotinyl-Leu-oxazolone assay, enter self-aminoacylation for GUACUUCAGACAAUCGGUCUG [Fam1A.1 aminoacylation ribozyme variant] here 1.32

Lab note: biotinyl-Leu-oxazolone assay, enter self-aminoacylation for CUACUUCAAACAAUUGGUUUG [Fam1A.1 aminoacylation ribozyme variant] here 0.721

Lab note: biotinyl-Leu-oxazolone assay, enter self-aminoacylation for AAUCACCUAGGUCAUCGCGUG [Fam2.2 aminoacylation ribozyme variant] here 12.1

Lab note: biotinyl-Leu-oxazolone assay, enter self-aminoacylation for AUUACCAUGGUUAUCGAGUGA [Fam2.1 aminoacylation ribozyme variant] here 10.6

----------
System: biotinyl-Ile-oxazolone
Test: self-aminoacylation, catalytic enhancement (BIO) (fold over background); higher = more active; k-Seq, kA / k0A0; sequences stand for … in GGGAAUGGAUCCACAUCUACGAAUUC…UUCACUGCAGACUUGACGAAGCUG
Fewer inactive variants are shown than the library holds.
Below is a list of entries, each paired with its recorded self-aminoacylation value.
# respond with the number and nothing more

Guide cases for self-aminoacylation, answers given:
AAGUUUGCCAAUAGUCGGAAG [Fam3.1 aminoacylation ribozyme variant]
1.14
UUACUUUAAACAAUCGGUCUG [Fam1A.1 aminoacylation ribozyme variant]
1.11
AUACACCUUGGUCAUCGGGUG [Fam2.2 aminoacylation ribozyme variant]
3.47
CAACCUCAAACAAUCGGUCUG [Fam1A.1 aminoacylation ribozyme variant]
1.21

Consider the sequence AUUACCCUGGUCAUCCAUUGA [Fam2.1 aminoacylation ribozyme variant] and give its recorded self-aminoacylation. 1.08

Consider the sequence CCACUCCUCAAGCAAUCGGUC [Fam1B.1 aminoacylation ribozyme variant] and give its recorded self-aminoacylation. 1.07

Consider the sequence AUUCACCUAGGUCAAUGGGUG [Fam2.2 aminoacylation ribozyme variant] and give its recorded self-aminoacylation. 1.42

Consider the sequence CCACACUUCACGCGAUCGGUC [Fam1B.1 aminoacylation ribozyme variant] and give its recorded self-aminoacylation. 1.46

----------
Tested on: biotinyl-Phe-oxazolone
Assay: self-aminoacylation, catalytic enhancement (BFO) (fold over background); higher = more active; k-Seq, kA / k0A0; sequences stand for … in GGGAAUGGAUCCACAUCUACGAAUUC…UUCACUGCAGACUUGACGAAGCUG
Fewer inactive variants are shown than the library holds.
So basically: self-aminoacylation at 1 or higher? That is Condition met. Lower than 1? That is Condition not met.

Past entries and their recorded results:
AGUCACCUAGGUCAUCCGGUG [Fam2.2 aminoacylation ribozyme variant]
Condition met
CUGCUUCAACCAAUCGGUCUG [Fam1A.1 aminoacylation ribozyme variant]
Condition met
GUUCACCUAAGUCAUCGGGUG [Fam2.2 aminoacylation ribozyme variant]
Condition met
AUUACCCUUGUCAUAGAGUGA [Fam2.1 aminoacylation ribozyme variant]
Condition met
GUUACCCUGGUCAGCGAGUGA [Fam2.1 aminoacylation ribozyme variant]
Condition met
AUUACCAUGGUCAUCAAGUGA [Fam2.1 aminoacylation ribozyme variant]
Condition met

hey, is self-aminoacylation for this one >= 1? AUUACCAUGGUCAUCGUGUGA [Fam2.1 aminoacylation ribozyme variant] Condition met

hey, is self-aminoacylation for this one >= 1? AAGUUUUCUCAUAGUCGCAAG [Fam3.1 aminoacylation ribozyme variant] Condition met

hey, is self-aminoacylation for this one >= 1? CCAUACUUCAAGCAAUUGGUC [Fam1B.1 aminoacylation ribozyme variant] Condition met

hey, is self-aminoacylation for this one >= 1? CCACACUAUAAGCAAUCGGUC [Fam1B.1 aminoacylation ribozyme variant] Condition not met

hey, is self-aminoacylation for this one >= 1? CCACACUUCCAGCAACCGGUC [Fam1B.1 aminoacylation ribozyme variant] Condition not met

hey, is self-aminoacylation for this one >= 1? AUUACCCUGGUCAGCGAGAGA [Fam2.1 aminoacylation ribozyme variant] Condition not met

hey, is self-aminoacylation for this one >= 1? CCACACUUCAAUGAAUCGGUC [Fam1B.1 aminoacylation ribozyme variant] Condition met

hey, is self-aminoacylation for this one >= 1? CUACUUGAAACAAUCGGUUUG [Fam1A.1 aminoacylation ribozyme variant] Condition not met

hey, is self-aminoacylation for this one >= 1? AAGUUCUCUAAUAGUCGCAAG [Fam3.1 aminoacylation ribozyme variant] Condition met

hey, is self-aminoacylation for this one >= 1? AUUCUCCUAGGUCAUCGAGUG [Fam2.2 aminoacylation ribozyme variant] Condition met

hey, is self-aminoacylation for this one >= 1? AUUACACUGGUCGUCGAGUGA [Fam2.1 aminoacylation ribozyme variant] Condition met

hey, is self-aminoacylation for this one >= 1? AAGUUUGCUCAUAGUGGCAAG [Fam3.1 aminoacylation ribozyme variant] Condition met

hey, is self-aminoacylation for this one >= 1? CUACUUCAACCAAUCGGUCUU [Fam1A.1 aminoacylation ribozyme variant] Condition met

hey, is self-aminoacylation for this one >= 1? AUUACCCUGGGCAUCGAGUCA [Fam2.1 aminoacylation ribozyme variant] Condition not met

----------
Test system: biotinyl-Met-oxazolone
Test: self-aminoacylation, catalytic enhancement (BMO) (fold over background); higher = more active; k-Seq, kA / k0A0; sequences stand for … in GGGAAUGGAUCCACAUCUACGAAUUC…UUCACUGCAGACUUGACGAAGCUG
Variants at the floor of the assay were thinned out.
So basically: self-aminoacylation at 2 or higher? That is MET. Lower than 2? That is NOT MET.

CCACACUUCAUACAAUCGGUC [Fam1B.1 aminoacylation ribozyme variant]
NOT MET
AAGGUUGCAAAUAGUCGCAAG [Fam3.1 aminoacylation ribozyme variant]
NOT MET
AAGUUUGCUAAUAGUAGCAAG [Fam3.1 aminoacylation ribozyme variant]
NOT MET
AUCCACAUAGGUCAUCGGGUG [Fam2.2 aminoacylation ribozyme variant]
MET
AAGUUUGCUGUUAGUCGCAAG [Fam3.1 aminoacylation ribozyme variant]
NOT MET
CUACUUAAAACAAUCGGUCUA [Fam1A.1 aminoacylation ribozyme variant]
NOT MET

hey, is self-aminoacylation for this one >= 2? AAGUUUGCUAACAGUCGCACG [Fam3.1 aminoacylation ribozyme variant] NOT MET

hey, is self-aminoacylation for this one >= 2? CCACCCCUCAAGCAAUCGGUC [Fam1B.1 aminoacylation ribozyme variant] NOT MET

hey, is self-aminoacylation for this one >= 2? CCACACUAUAAGCAAUCGGUC [Fam1B.1 aminoacylation ribozyme variant] NOT MET

hey, is self-aminoacylation for this one >= 2? CCAGACUUCAAGCAGUCGGUC [Fam1B.1 aminoacylation ribozyme variant] NOT MET

hey, is self-aminoacylation for this one >= 2? AUUCACAUAGCUCAUCGGGUG [Fam2.2 aminoacylation ribozyme variant] NOT MET

hey, is self-aminoacylation for this one >= 2? AUUACCAUGGUCAUGGAGUGA [Fam2.1 aminoacylation ribozyme variant] MET

----------
System: biotinyl-Ile-oxazolone
Experiment: self-aminoacylation, catalytic enhancement (BIO) (fold over background); higher = more active; k-Seq, kA / k0A0; sequences stand for … in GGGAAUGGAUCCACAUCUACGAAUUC…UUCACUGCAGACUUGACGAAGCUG
Variants at the floor of the assay were thinned out.
Below is a list of entries, each paired with its recorded self-aminoacylation value.
# respond with the number and nothing more

CCACACUUCAACCAAUCGUUC [Fam1B.1 aminoacylation ribozyme variant]
0.674
AAGUUCGCUAAUCGUCGCAAG [Fam3.1 aminoacylation ribozyme variant]
1.6
CCACACGUCAAGCCAUCGGUC [Fam1B.1 aminoacylation ribozyme variant]
1.34
AUUCACGUAGGUCAACGGGUG [Fam2.2 aminoacylation ribozyme variant]
2.77
AUUCACCUAGGUCCUCGGGUC [Fam2.2 aminoacylation ribozyme variant]
1.21

Consider the sequence CUACAUCAAACAAUCGGACUG [Fam1A.1 aminoacylation ribozyme variant] and give its recorded self-aminoacylation. 1.1

Consider the sequence CUUUUUCAAACAAUCGGUCUG [Fam1A.1 aminoacylation ribozyme variant] and give its recorded self-aminoacylation. 0.86

Consider the sequence AUUCUCCUGGUCAUCGAGUGA [Fam2.1 aminoacylation ribozyme variant] and give its recorded self-aminoacylation. 3.67

Consider the sequence CUACACUUCUAGCAAUCGGUC [Fam1B.1 aminoacylation ribozyme variant] and give its recorded self-aminoacylation. 0.706

Consider the sequence AUUACCUUGGUCAUCGAGUGG [Fam2.1 aminoacylation ribozyme variant] and give its recorded self-aminoacylation. 1.67

Consider the sequence CCACACUUCAAGAAAGCGGUC [Fam1B.1 aminoacylation ribozyme variant] and give its recorded self-aminoacylation. 0.839

Consider the sequence AUGCACCCAGGUCAUCGGGUG [Fam2.2 aminoacylation ribozyme variant] and give its recorded self-aminoacylation. 3.29

Consider the sequence CCAGACUUCAAGCAGUCGGUC [Fam1B.1 aminoacylation ribozyme variant] and give its recorded self-aminoacylation. 1.48

Consider the sequence AUUACCCUAGUCAGCGAGUGA [Fam2.1 aminoacylation ribozyme variant] and give its recorded self-aminoacylation. 3.38

Consider the sequence CCACACUCCAAGCAAACGGUC [Fam1B.1 aminoacylation ribozyme variant] and give its recorded self-aminoacylation. 0.95

Consider the sequence AUUCACCCAGGUAAUCGGGUG [Fam2.2 aminoacylation ribozyme variant] and give its recorded self-aminoacylation. 2.26

Consider the sequence AAGUCAGCUAAUAGUCGCAAG [Fam3.1 aminoacylation ribozyme variant] and give its recorded self-aminoacylation. 1.94

Consider the sequence AUUCACUUACGUCAUCGGGUG [Fam2.2 aminoacylation ribozyme variant] and give its recorded self-aminoacylation. 3.35
